Recorded Anti-CD28 Fab signal in the presence of CD28 values for a group of binders are listed next.
# target_desc: Anti-CD28 Fab (SEQ ID NOs: 696, 697)
# Sequence (VH, as listed by the source, chain 1 of 2): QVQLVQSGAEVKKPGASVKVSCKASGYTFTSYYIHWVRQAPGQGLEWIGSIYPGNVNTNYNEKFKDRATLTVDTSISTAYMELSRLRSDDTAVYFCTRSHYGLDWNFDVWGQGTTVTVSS
# Sequence (VL, as listed by the source, chain 2 of 2): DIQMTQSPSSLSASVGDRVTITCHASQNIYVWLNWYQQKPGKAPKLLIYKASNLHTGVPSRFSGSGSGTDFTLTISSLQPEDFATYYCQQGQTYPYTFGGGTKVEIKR
# procedure_summary: phage binding ELISA; captured anti-CD28 Fab pre-incubated with CD28 antigen as competitor, anti-M13 HRP detection
Where no end group is shown, it is not given here.

binder | val
YCAGHLPEYMMKCL (cysteine pairing not given here; also: displayed on phage by fusion to pIII, pIII and linker sequence not given here) [Phage-698] | 0.11

Please find the next binder below.
Q: Tell me the measured Anti-CD28 Fab signal in the presence of CD28 of YCEGHSIQYMAKCL (cysteine pairing not given here; also: displayed on phage by fusion to pIII, pIII and linker sequence not given here) [Phage-702] , please.
A: 0.06

Every entry's value here was drawn from patent US20260242478A1.
